The reported measurements were obtained from ChEMBL document CHEMBL1961873.

experimental target: Tyrosine-protein kinase Tec (Homo sapiens)
protocol conditions: at 0.1 µM
Description: GSK_PKIS: TEC mean inhibition at 0.1 uM [Nanosyn]
experimental endpoint: inhibition (%)
The answer is to be given in %; state only the numeric part.

Consider the following illustrative entries.
Query string: Please indicate inhibition recorded for Cc1cc(-c2ccco2)cc(C)c1/C=C/c1cncc(-c2nn[nH]n2)c1
Result string: -0.18

Query string: Please indicate inhibition recorded for CCn1c(-c2nonc2N)nc2c(C#CC(C)(C)O)ncc(OC[C@@H]3CCCN3)c21
Result string: 0.03

Query string: Please indicate inhibition recorded for NC(=O)c1sc(-n2cnc3cc(C(F)(F)F)ccc32)cc1OCc1ccccc1Br
Result string: 1.68

Query string: Please indicate inhibition recorded for COc1cc2c(cc1Nc1nc(Nc3ccsc3C(N)=O)c3cc[nH]c3n1)N(C(=O)CN(C)C)CCC2
Result string: -0.19

Query string: Please indicate inhibition recorded for COc1cccc(COc2cc(-n3cnc4ccccc43)sc2C(N)=O)c1
Result string: -0.82

Query string: Please indicate inhibition recorded for NS(=O)(=O)c1ccc(N/C=C2\C(=O)Nc3ccc4ncsc4c32)cc1
Result string: 1.96

Query string: Please indicate inhibition recorded for COc1cc(C=NNc2ncnc3c2cnn3Cc2ccccc2)ccc1O
Result string: -0.99

Query string: Please indicate inhibition recorded for NS(=O)(=O)c1ccc(-c2ccc3c(NC(=O)C4CC4)n[nH]c3c2)cc1
Result string: 4.93

Here is another compound to look at.
Query string: Please indicate inhibition recorded for Fc1ccc(-c2ncn(C3CCNCC3)c2-c2ccnc(Oc3ccccc3)n2)cc1
Result string: -3.67

---

The entries below are paired with their reported inhibition.
experimental target: Serine/threonine-protein kinase SIK2 (Homo sapiens);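 further: mean inhibition of SNF1LK2 (QIK) kinase activity, from the GSK PKIS screening panel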
protocol conditions: at 1 µM
The answer is to be given in %; state only the numeric part.

Query string: Please indicate inhibition recorded for NS(=O)(=O)c1ccc(N/C=C2\C(=O)Nc3ccc4ncsc4c32)cc1
Result string: 25.8

---
Query string: Please indicate inhibition recorded for CCn1c(-c2nonc2N)nc2c(C#CC(C)(C)O)nc(O[C@@H](CN)c3ccccc3)cc21
Result string: 14.8

Query string: Please indicate inhibition recorded for Fc1ccc(-c2ncn(C3CCNCC3)c2-c2ccnc(Oc3ccccc3)n2)cc1
Result string: 7.64

Query string: Please indicate inhibition recorded for Cc1cc(-c2ccco2)cc(C)c1/C=C/c1cncc(-c2nn[nH]n2)c1
Result string: 0.13

---

The entries below are paired with their reported inhibition.
experimental target: Tyrosine-protein kinase Yes (Homo sapiens) (UniProt P07947);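 further: mean inhibition of YES, from the GSK PKIS dataset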
Sequence (P07947 2-543 limits assumed): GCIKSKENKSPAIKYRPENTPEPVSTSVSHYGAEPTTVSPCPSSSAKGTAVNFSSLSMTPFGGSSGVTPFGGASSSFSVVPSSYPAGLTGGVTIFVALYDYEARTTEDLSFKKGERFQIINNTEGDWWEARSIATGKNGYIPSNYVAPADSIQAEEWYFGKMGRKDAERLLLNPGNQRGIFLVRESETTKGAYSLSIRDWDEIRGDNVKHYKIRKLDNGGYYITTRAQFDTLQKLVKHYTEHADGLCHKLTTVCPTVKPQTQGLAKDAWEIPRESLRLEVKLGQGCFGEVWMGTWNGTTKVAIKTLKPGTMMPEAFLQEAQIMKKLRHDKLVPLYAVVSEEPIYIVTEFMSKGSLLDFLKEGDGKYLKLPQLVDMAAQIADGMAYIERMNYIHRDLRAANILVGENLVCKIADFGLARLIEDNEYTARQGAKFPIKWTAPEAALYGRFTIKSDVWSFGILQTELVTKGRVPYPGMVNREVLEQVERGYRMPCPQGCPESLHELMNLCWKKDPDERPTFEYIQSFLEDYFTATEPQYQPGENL
protocol conditions: at 0.1 µM
The answer is to be given in %; state only the numeric part.

Consider the following illustrative entries.
Query string: Please indicate inhibition recorded for NS(=O)(=O)c1ccc(N/C=C2\C(=O)Nc3ccc4ncsc4c32)cc1
Result string: 2.73

Query string: Please indicate inhibition recorded for COc1cc(C=NNc2ncnc3c2cnn3Cc2ccccc2)ccc1O
Result string: 14.6

Query string: Please indicate inhibition recorded for CCn1c(-c2nonc2N)nc2c(C#CC(C)(C)O)nc(O[C@@H](CN)c3ccccc3)cc21
Result string: 2.89

Query string: Please indicate inhibition recorded for Nc1nonc1-c1nc2cnccc2n1C1CCCCC1
Result string: 1.72

Query string: Please indicate inhibition recorded for CCn1c(-c2nonc2N)nc2c(C#CCN)ncc(OCCCN)c21
Result string: 0.61

Here is another compound to look at.
Query string: Please indicate inhibition recorded for CCn1c(-c2nonc2N)nc2c(C#CC(C)(C)O)ncc(OC[C@@H]3CCCN3)c21
Result string: -0.57

---

Test system: Platelet-derived growth factor receptor alpha (Homo sapiens), P16234 [V561D]
Sequence (P16234 whole entry V561D): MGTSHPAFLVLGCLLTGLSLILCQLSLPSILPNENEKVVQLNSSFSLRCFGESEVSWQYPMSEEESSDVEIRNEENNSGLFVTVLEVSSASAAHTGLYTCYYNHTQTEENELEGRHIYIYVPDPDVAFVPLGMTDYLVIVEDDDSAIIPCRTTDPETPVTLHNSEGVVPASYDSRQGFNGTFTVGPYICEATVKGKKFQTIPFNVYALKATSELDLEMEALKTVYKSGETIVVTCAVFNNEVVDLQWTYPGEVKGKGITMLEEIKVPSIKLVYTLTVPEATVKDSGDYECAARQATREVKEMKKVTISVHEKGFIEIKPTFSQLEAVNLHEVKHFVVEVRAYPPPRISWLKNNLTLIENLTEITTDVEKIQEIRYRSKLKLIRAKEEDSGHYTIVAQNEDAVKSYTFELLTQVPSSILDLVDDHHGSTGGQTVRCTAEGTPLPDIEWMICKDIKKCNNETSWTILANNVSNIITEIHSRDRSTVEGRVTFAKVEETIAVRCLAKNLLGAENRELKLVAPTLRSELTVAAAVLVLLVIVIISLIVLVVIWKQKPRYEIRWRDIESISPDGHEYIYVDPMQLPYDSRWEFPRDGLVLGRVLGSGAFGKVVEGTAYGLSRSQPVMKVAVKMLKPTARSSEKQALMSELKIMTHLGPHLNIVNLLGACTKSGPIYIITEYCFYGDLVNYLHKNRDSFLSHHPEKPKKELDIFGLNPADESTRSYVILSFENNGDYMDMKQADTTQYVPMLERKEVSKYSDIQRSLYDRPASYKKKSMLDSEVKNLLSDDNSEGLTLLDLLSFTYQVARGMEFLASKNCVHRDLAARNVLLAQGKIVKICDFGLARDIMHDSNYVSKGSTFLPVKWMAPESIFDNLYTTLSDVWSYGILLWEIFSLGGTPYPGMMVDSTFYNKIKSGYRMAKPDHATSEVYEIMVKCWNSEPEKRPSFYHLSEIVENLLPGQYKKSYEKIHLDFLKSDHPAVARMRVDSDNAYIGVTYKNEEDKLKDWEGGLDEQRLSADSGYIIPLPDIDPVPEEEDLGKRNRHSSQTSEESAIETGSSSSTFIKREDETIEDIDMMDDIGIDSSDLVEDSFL
protocol conditions: at 1 µM
experimental endpoint: inhibition (%)
The answer is to be given in %; state only the numeric part.

Consider the following illustrative entries.
Query string: Please indicate inhibition recorded for Cc1cc(-c2ccco2)cc(C)c1/C=C/c1cncc(-c2nn[nH]n2)c1
Result string: 7

Query string: Please indicate inhibition recorded for NS(=O)(=O)c1ccc(-c2ccc3c(NC(=O)C4CC4)n[nH]c3c2)cc1
Result string: 8.8

Query string: Please indicate inhibition recorded for COc1cccc(-n2ncc3c(N/N=C/c4ccncc4)ncnc32)c1
Result string: 84.7

Query string: Please indicate inhibition recorded for NS(=O)(=O)c1ccc(N/C=C2\C(=O)Nc3ccc4ncsc4c32)cc1
Result string: 90.9

---
Query string: Please indicate inhibition recorded for CCn1c(-c2nonc2N)nc2c(C#CC(C)(C)O)ncc(OC[C@@H]3CCCN3)c21
Result string: 22.3

Query string: Please indicate inhibition recorded for Fc1ccc(-c2ncn(C3CCNCC3)c2-c2ccnc(Oc3ccccc3)n2)cc1
Result string: 5.32

Query string: Please indicate inhibition recorded for COc1cccc(COc2cc(-n3cnc4ccccc43)sc2C(N)=O)c1
Result string: 5.54

Query string: Please indicate inhibition recorded for Nc1nonc1-c1nc2cnccc2n1C1CCCCC1
Result string: 14.4

Query string: Please indicate inhibition recorded for CCn1c(-c2nonc2N)nc2c(C#CCN)ncc(OCCCN)c21
Result string: 3.51

Query string: Please indicate inhibition recorded for NC(=O)c1sc(-n2cnc3cc(C(F)(F)F)ccc32)cc1OCc1ccccc1Br
Result string: 4.58

---

The entries below are paired with their reported inhibition.
experimental target: Tyrosine-protein kinase ITK/TSK (Homo sapiens) (UniProt Q08881);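 further: mean percent inhibition of ITK from the GSK PKIS screen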
Sequence (Q08881 whole entry): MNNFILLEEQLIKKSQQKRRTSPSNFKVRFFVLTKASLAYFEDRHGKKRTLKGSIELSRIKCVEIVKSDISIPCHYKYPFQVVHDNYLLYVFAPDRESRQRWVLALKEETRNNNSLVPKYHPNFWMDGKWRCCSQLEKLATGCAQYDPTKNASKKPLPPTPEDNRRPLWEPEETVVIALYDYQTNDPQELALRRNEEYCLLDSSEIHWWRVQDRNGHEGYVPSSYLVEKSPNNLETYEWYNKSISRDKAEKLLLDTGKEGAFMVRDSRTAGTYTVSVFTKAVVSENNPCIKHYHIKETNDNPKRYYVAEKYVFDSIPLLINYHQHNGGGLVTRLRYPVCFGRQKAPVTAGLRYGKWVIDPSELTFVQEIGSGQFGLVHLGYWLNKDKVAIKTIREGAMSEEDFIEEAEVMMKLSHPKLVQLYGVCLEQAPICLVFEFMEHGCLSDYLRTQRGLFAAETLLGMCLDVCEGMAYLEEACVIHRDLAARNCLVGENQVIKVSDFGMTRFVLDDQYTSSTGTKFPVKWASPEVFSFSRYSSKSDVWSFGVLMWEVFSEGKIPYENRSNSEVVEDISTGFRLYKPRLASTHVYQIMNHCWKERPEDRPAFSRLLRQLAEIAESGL
protocol conditions: at 0.1 µM
The answer is to be given in %; state only the numeric part.

Query string: Please indicate inhibition recorded for CCn1c(-c2nonc2N)nc2c(C#CCN)ncc(OCCCN)c21
Result string: 0.2

Query string: Please indicate inhibition recorded for NS(=O)(=O)c1ccc(N/C=C2\C(=O)Nc3ccc4ncsc4c32)cc1
Result string: 1.17

Query string: Please indicate inhibition recorded for COc1cc(C=NNc2ncnc3c2cnn3Cc2ccccc2)ccc1O
Result string: -1.61

Query string: Please indicate inhibition recorded for CCn1c(-c2nonc2N)nc2c(C#CC(C)(C)O)ncc(OCC3CCNCC3)c21
Result string: -2.28

---
Query string: Please indicate inhibition recorded for COc1cccc(COc2cc(-n3cnc4ccccc43)sc2C(N)=O)c1
Result string: -2.19

Query string: Please indicate inhibition recorded for COc1cccc(-n2ncc3c(N/N=C/c4ccncc4)ncnc32)c1
Result string: 1.63

Query string: Please indicate inhibition recorded for Nc1nonc1-c1nc2cnccc2n1C1CCCCC1
Result string: -0.34

Query string: Please indicate inhibition recorded for Fc1ccc(-c2ncn(C3CCNCC3)c2-c2ccnc(Oc3ccccc3)n2)cc1
Result string: -3.91

Query string: Please indicate inhibition recorded for Cc1cc(-c2ccco2)cc(C)c1/C=C/c1cncc(-c2nn[nH]n2)c1
Result string: -0.49

Query string: Please indicate inhibition recorded for CCn1c(-c2nonc2N)nc2c(C#CC(C)(C)O)ncc(OC[C@@H]3CCCN3)c21
Result string: -1.58

---

The entries below are paired with their reported inhibition.
experimental target: Serine/threonine-protein kinase PAK 1 (Homo sapiens);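 further: values are mean PAK1 inhibition from the GSK PKIS kinase inhibitor set screen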
protocol conditions: at 0.1 µM
The answer is to be given in %; state only the numeric part.

Consider the following illustrative entries.
Query string: Please indicate inhibition recorded for COc1cccc(-n2ncc3c(N/N=C/c4ccncc4)ncnc32)c1
Result string: 5.78

Query string: Please indicate inhibition recorded for CCn1c(-c2nonc2N)nc2c(C#CC(C)(C)O)ncc(OC[C@@H]3CCCN3)c21
Result string: -0.64

Query string: Please indicate inhibition recorded for CCn1c(-c2nonc2N)nc2c(C#CC(C)(C)O)ncc(OCC3CCNCC3)c21
Result string: 5.46

Here is another molecule to look at.
Query string: Please indicate inhibition recorded for NS(=O)(=O)c1ccc(-c2ccc3c(NC(=O)C4CC4)n[nH]c3c2)cc1
Result string: 6.54

---

The entries below are paired with their reported inhibition.
experimental target: Fibroblast growth factor receptor 4 (Homo sapiens) (UniProt P22455);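 further: values are mean percent inhibition of FGFR4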
Sequence (P22455 22-802 limits assumed): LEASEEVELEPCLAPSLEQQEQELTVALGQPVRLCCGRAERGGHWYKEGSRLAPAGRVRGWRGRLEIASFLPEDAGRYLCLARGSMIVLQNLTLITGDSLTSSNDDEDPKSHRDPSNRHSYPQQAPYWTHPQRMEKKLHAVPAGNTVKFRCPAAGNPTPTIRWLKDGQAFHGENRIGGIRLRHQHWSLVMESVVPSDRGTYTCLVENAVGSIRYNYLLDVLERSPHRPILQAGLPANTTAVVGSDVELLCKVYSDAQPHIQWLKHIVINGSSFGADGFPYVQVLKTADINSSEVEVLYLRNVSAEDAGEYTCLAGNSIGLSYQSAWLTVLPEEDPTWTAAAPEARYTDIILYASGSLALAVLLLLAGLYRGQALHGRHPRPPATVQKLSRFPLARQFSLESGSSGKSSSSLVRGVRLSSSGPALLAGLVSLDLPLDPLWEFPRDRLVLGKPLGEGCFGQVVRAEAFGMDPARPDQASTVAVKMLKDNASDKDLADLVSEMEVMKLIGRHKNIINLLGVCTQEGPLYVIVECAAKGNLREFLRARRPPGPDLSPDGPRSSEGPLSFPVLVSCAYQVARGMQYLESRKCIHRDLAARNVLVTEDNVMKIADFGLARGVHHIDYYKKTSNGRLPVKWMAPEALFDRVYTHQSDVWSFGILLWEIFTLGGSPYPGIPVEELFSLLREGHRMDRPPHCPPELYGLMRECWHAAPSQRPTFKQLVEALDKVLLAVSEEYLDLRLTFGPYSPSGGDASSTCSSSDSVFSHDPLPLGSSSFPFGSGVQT
protocol conditions: at 0.1 µM
The answer is to be given in %; state only the numeric part.

Query string: Please indicate inhibition recorded for NS(=O)(=O)c1ccc(N/C=C2\C(=O)Nc3ccc4ncsc4c32)cc1
Result string: 1.61

Query string: Please indicate inhibition recorded for COc1cccc(-n2ncc3c(N/N=C/c4ccncc4)ncnc32)c1
Result string: 1.99

Query string: Please indicate inhibition recorded for Fc1ccc(-c2ncn(C3CCNCC3)c2-c2ccnc(Oc3ccccc3)n2)cc1
Result string: -2.7

Query string: Please indicate inhibition recorded for NS(=O)(=O)c1ccc(-c2ccc3c(NC(=O)C4CC4)n[nH]c3c2)cc1
Result string: 0.67

Query string: Please indicate inhibition recorded for NC(=O)c1sc(-n2cnc3cc(C(F)(F)F)ccc32)cc1OCc1ccccc1Br
Result string: 2.01

---
Query string: Please indicate inhibition recorded for CCn1c(-c2nonc2N)nc2c(C#CC(C)(C)O)nc(O[C@@H](CN)c3ccccc3)cc21
Result string: 0.28

---

experimental target: Tyrosine-protein kinase Fyn (Homo sapiens)
protocol conditions: at 1 µM
Description: GSK_PKIS: FYN mean inhibition at 1 uM [Nanosyn]
experimental endpoint: inhibition (%)
The answer is to be given in %; state only the numeric part.

Query string: Please indicate inhibition recorded for CCn1c(-c2nonc2N)nc2c(C#CC(C)(C)O)nc(O[C@@H](CN)c3ccccc3)cc21
Result string: 25

Query string: Please indicate inhibition recorded for CCn1c(-c2nonc2N)nc2c(C#CC(C)(C)O)ncc(OC[C@@H]3CCCN3)c21
Result string: 1.07

Query string: Please indicate inhibition recorded for COc1cc2c(cc1Nc1nc(Nc3ccsc3C(N)=O)c3cc[nH]c3n1)N(C(=O)CN(C)C)CCC2
Result string: 6.09

Query string: Please indicate inhibition recorded for CCn1c(-c2nonc2N)nc2c(C#CC(C)(C)O)ncc(OCC3CCNCC3)c21
Result string: 2.15

Query string: Please indicate inhibition recorded for Fc1ccc(-c2ncn(C3CCNCC3)c2-c2ccnc(Oc3ccccc3)n2)cc1
Result string: -3.36

Here is another compound to look at.
Query string: Please indicate inhibition recorded for NS(=O)(=O)c1ccc(N/C=C2\C(=O)Nc3ccc4ncsc4c32)cc1
Result string: 9.66
